system: human type 1 glycine transporter (GlyT1) (Homo sapiens)
Construct: Used in the experiment were T98G cells (glioma cells) developing a human type 1 glycine transporter (GlyT1); endogenous in cells; host or cells: T98G human glioma cells
Sequence (P48067 1-706): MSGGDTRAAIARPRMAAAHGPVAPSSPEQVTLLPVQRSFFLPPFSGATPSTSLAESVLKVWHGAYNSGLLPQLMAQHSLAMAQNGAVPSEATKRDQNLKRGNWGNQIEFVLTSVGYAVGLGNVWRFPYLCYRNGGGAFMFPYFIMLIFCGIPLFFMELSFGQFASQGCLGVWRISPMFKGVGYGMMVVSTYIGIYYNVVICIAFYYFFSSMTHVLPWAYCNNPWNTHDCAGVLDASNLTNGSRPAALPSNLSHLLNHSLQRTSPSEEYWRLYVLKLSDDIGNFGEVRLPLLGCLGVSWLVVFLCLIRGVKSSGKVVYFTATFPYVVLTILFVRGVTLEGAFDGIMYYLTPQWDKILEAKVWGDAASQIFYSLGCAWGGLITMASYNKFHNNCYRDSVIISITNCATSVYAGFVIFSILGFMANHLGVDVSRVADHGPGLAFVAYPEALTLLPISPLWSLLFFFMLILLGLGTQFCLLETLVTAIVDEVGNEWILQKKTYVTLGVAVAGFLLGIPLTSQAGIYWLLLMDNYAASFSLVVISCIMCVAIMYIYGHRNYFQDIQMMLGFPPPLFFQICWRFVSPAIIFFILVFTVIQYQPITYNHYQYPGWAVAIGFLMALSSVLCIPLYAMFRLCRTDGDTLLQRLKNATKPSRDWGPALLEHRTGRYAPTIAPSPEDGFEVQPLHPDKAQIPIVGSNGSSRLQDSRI
method notes: Glycine uptake inhibition experiment ([3H] glycine uptake in T98G cells)
Type: cell-based
condition summary: [3H] glycine 250 nM, read-out: IC50 (glycine uptake inhibiting activity)
Listed next: entries and their corresponding IC50.

{"columns": ["molecule", "IC50"],
 "data": [
  ["Cn1cnc(C(=O)N(Cc2ccc(F)c(Cl)c2)C2CCOCC2)n1 [Compound 34]", "< 100 nM"],
  ["Cn1cnc(C(=O)N(Cc2ccc(Cl)c(OC(F)(F)F)c2)C2CCOCC2)n1 [Compound 69]", "< 100 nM"],
  ["COC(=O)c1cccc(-c2cc(CN(C(=O)c3ncn(C)n3)C3CCOCC3)ccc2F)c1 [Compound 77]", "< 100 nM"],
  ["Cn1cnc(C(=O)N(CCOc2ccc(Cl)c(Cl)c2)C2CCOCC2)c1 [Compound 39]", "< 100 nM"],
  ["Cn1cnc(C(=O)N(Cc2ccc(F)c(-c3ccc(C(F)(F)F)cc3)c2)C2CCOCC2)c1 [Compound 104]", "< 100 nM"],
  ["Cn1cnc(C(=O)N(Cc2cccc(I)c2)C2CCOCC2)n1 [Compound 53]", "< 100 nM"],
  ["Cn1cnc(C(=O)N(Cc2ccc(F)c(-c3cccc(Cl)c3)c2)C2CCOCC2)n1 [Compound 61]", "< 100 nM"],
  ["Cn1cnc(C(=O)N(Cc2ccc(F)c(OC(F)(F)F)c2)C2CCOCC2)n1 [Compound 49]", "< 100 nM"],
  ["CCn1cnc(C(=O)N(Cc2cccc(OC(F)(F)F)c2)C2CCOCC2)c1 [Compound 13]", "< 100 nM"],
  ["CCCOc1cccc(-c2cc(CN(C(=O)c3ncn(C)n3)C3CCOCC3)ccc2F)c1 [Compound 93]", "< 100 nM"],
  ["O=C(c1ncn(C(F)F)n1)N(Cc1cccc(OC(F)(F)F)c1)C1CCOCC1 [Compound 75]", "≥ 1000 nM"],
  ["Cn1cnc(C(=O)N(Cc2cccc(C(F)(F)F)c2)C2CCOCC2)c1 [Compound 16]", "< 100 nM"],
  ["Cc1ccc(-c2cc(CN(C(=O)c3cn(C)cn3)C3CCOCC3)ccc2F)cc1 [Compound 105]", "< 100 nM"],
  ["Cn1cnc(C(=O)N(Cc2ccc(F)c(-c3cccc(OC(F)(F)F)c3)c2)C2CCOCC2)n1 [Compound 87]", "< 100 nM"],
  ["Cn1cnc(C(=O)N(Cc2cccc(C(F)(F)F)c2)C2CCS(=O)(=O)CC2)c1 [Compound 117]", "≥ 1000 nM"],
  ["Cn1cnc(C(=O)N(Cc2ccc(F)c(Br)c2)C2CCOCC2)c1 [Compound 102]", "< 100 nM"],
  ["Cn1cnc(C(=O)N(Cc2ccc(OC(F)F)c(OC(F)F)c2)C2CCOCC2)n1 [Compound 68]", "≥ 1000 nM"]
]}

====

Reported IC50 values for a set of compounds
system: human type 1 glycine transporter (GlyT1) (Homo sapiens)
Construct: Used in the experiment were T98G cells (glioma cells) developing a human type 1 glycine transporter (GlyT1); endogenous in cells; host or cells: T98G human glioma cells
method notes: Glycine uptake inhibition experiment ([3H] glycine uptake in T98G cells)
Assay type: cell-based
condition summary: [3H] glycine 250 nM, read-out: IC50 (glycine uptake inhibiting activity)
measured quantity: IC50

{"columns": ["compound", "measured quantity", "reported measurement"],
 "data": [
  ["Cn1cnc(C(=O)N(Cc2cccc(OC(F)F)c2)C2CCOCC2)n1 [Compound 67]", "IC50", "< 100 nM"],
  ["Cc1nc(C(=O)N(Cc2cccc(OC(F)(F)F)c2)C2CCOCC2)c[nH]1 [Compound 8]", "IC50", "≥ 1000 nM"],
  ["Cn1cnc(C(=O)N(Cc2ccc(F)c(-c3ccc(OC(F)(F)F)cc3)c2)C2CCSCC2)c1 [Compound 112]", "IC50", "< 100 nM"],
  ["Cn1cnc(C(=O)N(Cc2ccc(F)c(-c3cccc(CO)c3)c2)C2CCOCC2)n1 [Compound 78]", "IC50", "< 100 nM"],
  ["CC1CC(N(Cc2ccc(F)c(Br)c2)C(=O)c2cn(C)cn2)CC(C)O1 (centres unmarked) [Compound 111]", "IC50", "≥ 1000 nM"],
  ["Cn1cnc(C(=O)N(CCc2ccccc2Cl)C2CCOCC2)n1 [Compound 47]", "IC50", "≥ 1000 nM"],
  ["Cn1cnc(C(=O)N(Cc2ccc(F)c(-c3ccccc3F)c2)C2CCOCC2)n1 [Compound 88]", "IC50", "< 100 nM"],
  ["Cn1cnc(C(=O)N(Cc2cc(OC(F)(F)F)ccc2F)C2CCOCC2)n1 [Compound 63]", "IC50", "≥ 1000 nM"],
  ["Cn1cnc(C(=O)N(Cc2ccc(F)c(-c3ccc(F)c(Cl)c3)c2)C2CCOCC2)n1 [Compound 86]", "IC50", "< 100 nM"],
  ["COC(=O)C(Cc1cccc(OC(F)(F)F)c1)N(C(=O)c1cn(C)cn1)C1CCOCC1 (centres unmarked) [Compound 107]", "IC50", "< 100 nM"],
  ["Cn1cnc(C(=O)N(Cc2ccc(F)c(-c3cccc(Oc4ccccc4)c3)c2)C2CCOCC2)n1 [Compound 96]", "IC50", "< 100 nM"],
  ["Cn1cnc(C(=O)N(Cc2ccc(F)c(-c3cccc(CO)c3)c2)C2CCOCC2)c1 [Compound 94]", "IC50", "< 100 nM"],
  ["Cn1cnc(C(=O)N(Cc2cc(F)cc(C(F)(F)F)c2)C2CCOCC2)c1 [Compound 42]", "IC50", "< 100 nM"],
  ["Cn1cnc(C(=O)N(Cc2ccc(F)c(-c3ccc(F)cc3)c2)C2CCOCC2)n1 [Compound 79]", "IC50", "< 100 nM"],
  ["Cn1cnc(C(=O)N(Cc2ccc(F)c(Cl)c2)C2CCOCC2)c1 [Compound 24]", "IC50", "< 100 nM"],
  ["CCn1cnc(C(=O)N(Cc2ccc(F)c(C(F)(F)F)c2)C2CCOCC2)n1 [Compound 45]", "IC50", "< 100 nM"],
  ["Cn1cnc(C(=O)N(Cc2ccc(F)c(C(F)(F)F)c2)C2CCOCC2)c1 [Compound 25]", "IC50", "< 100 nM"]
]}

====

system: human type 1 glycine transporter (GlyT1) (Homo sapiens)
Construct: Used in the experiment were T98G cells (glioma cells) developing a human type 1 glycine transporter (GlyT1); endogenous in cells; host or cells: T98G human glioma cells
method notes: Glycine uptake inhibition experiment ([3H] glycine uptake in T98G cells)
Format: cell-based
condition summary: [3H] glycine 250 nM, read-out: IC50 (glycine uptake inhibiting activity)
Measured IC50 values are reported for all entries that follow.

{"columns": ["smiles data", "IC50"],
 "data": [
  ["Cn1cnc(C(=O)N(CCc2cccc(OC(F)(F)F)c2)C2CCOCC2)c1", "< 100 nM"],
  ["Cn1cnc(C(=O)N(CCC2CCOCC2)Cc2cccc(OC(F)(F)F)c2)c1", "< 100 nM"],
  ["Cn1cc(C(=O)N(Cc2cccc(OC(F)(F)F)c2)C2CCOCC2)nc1Br", "≥ 1000 nM"],
  ["Cn1cnc(C(=O)N(Cc2ccc(F)c(-c3ccc(F)cc3)c2)C2CCSCC2)c1", "< 100 nM"],
  ["O=C(c1nc[nH]n1)N(Cc1ccc(F)c(Cl)c1)C1CCOCC1", "≥ 1000 nM"],
  ["Cn1cnc(C(=O)N(CCOc2ccc(Cl)cc2)C2CCOCC2)c1", "< 100 nM"],
  ["CCn1cnc(C(=O)N(Cc2cccc(OC(F)(F)F)c2)C2CCOCC2)n1", "< 100 nM"],
  ["O=C(c1nc[nH]n1)N(Cc1ccc(F)c(C(F)(F)F)c1)C1CCOCC1", "≥ 1000 nM"],
  ["Cn1cnc(C(=O)N(Cc2ccc(F)c(C(F)(F)F)c2)C2CCOCC2)n1", "< 100 nM"],
  ["Cn1cnc(C(=O)N(Cc2ccc(F)c(-c3ccc(OC(F)(F)F)cc3)c2)C2CCOCC2)c1", "< 100 nM"],
  ["O=C(c1c[nH]cn1)N(Cc1cccc(Cl)c1)C1CCOCC1", "≥ 1000 nM"],
  ["Cn1cnc(C(=O)N(Cc2cccc(C(F)(F)F)c2)C2CCSCC2)c1", "< 100 nM"],
  ["Cn1cnc(C(=O)N(Cc2ccc(F)c(-c3cccc(CCC#N)c3)c2)C2CCOCC2)c1", "< 100 nM"],
  ["COc1cccc(CN(C(=O)c2cn(C)cn2)C2CCOCC2)c1", "< 100 nM"],
  ["Cn1cnc(C(=O)N(Cc2cccc(OC(F)(F)F)c2)CC2CCOCC2)c1", "< 100 nM"],
  ["Cn1cnc(C(=O)N(Cc2ccc(F)c(-c3cccc(C(F)(F)F)c3)c2)C2CCOCC2)n1", "< 100 nM"],
  ["Cn1cnc(C(=O)N(Cc2cc(Cl)cc(OC(F)(F)F)c2)C2CCOCC2)n1", "< 100 nM"],
  ["Cn1cnc(C(=O)N(Cc2ccc(F)c(-c3ccc(OC(F)(F)F)cc3)c2)C2CCOCC2)n1", "< 100 nM"]
]}
